tested on: VDR homodimer (NR concentration 270 nM); assay: PBM binding z-score (relative to random genomic background probes); higher = stronger binding; sequences stand for … in GC…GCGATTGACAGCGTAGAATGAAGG
Label label 1 when PBM binding z-score is at or above 1; anything below gets label 0.

GCTCTTAGTTGAAAGGGCAACCGAATGATTCTCG : label 0
TATCCTAGGTCATTCAGGGGCCAGTATAGAAAGC : label 1
CCAGACAGGTGAGAAGGTAACTCTGCCTCGATTA : label 0
GGAACGACGGCATTCGAGTTGATAGCATGGCGAT : label 0
CCTCGGAGGACAACACGAGGTCAGAGCTGCCAGA : label 1
AGTCAAAGTTCACTAGGTAACGGAAGATTCAGCT : label 1
TTACCAACGTGAGCTGAGGTCGTTGATCCAACTC : label 1
GGTAGTTGGTCAGTAAAAGGTCACACACCGGTCG : label 1

Ask: Reported PBM binding z-score reaches at least 1 for CGTCCAAGGTCAAGGCTAGGTCAGTGAAAGCATT ?
Reply: label 1

Ask: Reported PBM binding z-score reaches at least 1 for TATGCTAGGTCAGTTGGTCAGCTAACGAGCTGCC ?
Reply: label 0

Ask: Reported PBM binding z-score reaches at least 1 for CCTACTGGGCCACGAAAGGACATTGATTCAGTGA ?
Reply: label 0

---

Entries and their measured PBM binding z-score follow.
tested on: LXRb homodimer (NR concentration 270 nM); assay: PBM binding z-score (relative to random genomic background probes); higher = stronger binding; sequences stand for … in GC…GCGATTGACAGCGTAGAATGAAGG
Give the figure only, with no unit attached.

Here are 4 sequences together with their reported answers.
ACAGACAGCTGATGAAGGTAACTCAGGCTATCAT : -0.451
CGTCCAAGGTCGGAGAGGTCAGTGAATGCCGAGT : -0.761
CCTGCTAGGTCAATGGTCAGCTAGAGCAGCTCGC : -0.0711
CGTCCAAGCTCAATGCTAGGTCAGTGAAAGCATT : -0.887

Lab note: measured PBM binding z-score of ACTTACGAGTCAACGAGGTTATAGCACGCGTATA was 0.307

Lab note: measured PBM binding z-score of TCTGCTAGGTCAACGATGGTCACCTAATCTGCTA was -0.183

---

test system: RARb:RXRa (NR concentration 270 nM, RXRa partner concentration 90 nM); test: PBM binding z-score (relative to random genomic background probes); higher = stronger binding; sequences stand for … in GC…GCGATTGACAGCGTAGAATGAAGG
reported-property: PBM binding z-score
Give the figure only, with no unit attached.

Here are 8 sequences together with their reported answers.
CCTACTGGGCCACGAAAGGTCAGTGATTCAGTGA : 3.81
CGAACTAGGTCAGAACAGGGCAGTGAAGGATGAT : 3.15
GCTGCCAGGTCAACTGATGGTCAGCTAAAGCTCG : 4.46
CCTCGGAGGACAGAAGGTCAGAGTTGTCCGCTTT : 3.16
GCTGCTAGGTCAGGTTGGTTAGCTAACGGGTACG : 3.07
TTACCAAGGTGAAAGTTCGTTGATGCACGCCTTG : 2.24
ACTAGCAGGCCAAGTTTGGGTCACTAAAACAAAG : 1.79
GCATACAGGTAATACAAGGTGAAAGTCCGATTGT : 0.594

Lab note: measured PBM binding z-score of GCTGCTAGGTCAACTGATGGTCAGATAAAGCTCG was 4.22

Lab note: measured PBM binding z-score of TCATATAGGTAATACAGGTTAAAGTCGGCATCTA was 0.992

Lab note: measured PBM binding z-score of TATATTAGTTGATTAGGGCAACCGAAACAGCGGA was 1.16

Lab note: measured PBM binding z-score of TCATATAGGTAAATGCTAGGAGAAAGTCCGATCT was 0.136

Lab note: measured PBM binding z-score of GGAACGAGGGCATTCGAGATGATAGCATGGCGAT was 1.72

Lab note: measured PBM binding z-score of TAGCCTAGGTCAGATCGGGCCAGTAAACGCTATA was 2.85

Lab note: measured PBM binding z-score of GCGACTGGGGCATCAGCAGGATACCATAACTTAA was 0.233

Lab note: measured PBM binding z-score of TTACCAAGGTTAAGGTCGTTGATCCCTCTGTAGA was 3.04

The values you see were collected from the supplement of paper PMC6555819.
